src = patent US8343961B2

For each record, write down the corresponding inhibition at 30 µM.
# TARGET_OF_ASSAY: RET kinase (Homo sapiens)
# Sequence (P07949 29-1114): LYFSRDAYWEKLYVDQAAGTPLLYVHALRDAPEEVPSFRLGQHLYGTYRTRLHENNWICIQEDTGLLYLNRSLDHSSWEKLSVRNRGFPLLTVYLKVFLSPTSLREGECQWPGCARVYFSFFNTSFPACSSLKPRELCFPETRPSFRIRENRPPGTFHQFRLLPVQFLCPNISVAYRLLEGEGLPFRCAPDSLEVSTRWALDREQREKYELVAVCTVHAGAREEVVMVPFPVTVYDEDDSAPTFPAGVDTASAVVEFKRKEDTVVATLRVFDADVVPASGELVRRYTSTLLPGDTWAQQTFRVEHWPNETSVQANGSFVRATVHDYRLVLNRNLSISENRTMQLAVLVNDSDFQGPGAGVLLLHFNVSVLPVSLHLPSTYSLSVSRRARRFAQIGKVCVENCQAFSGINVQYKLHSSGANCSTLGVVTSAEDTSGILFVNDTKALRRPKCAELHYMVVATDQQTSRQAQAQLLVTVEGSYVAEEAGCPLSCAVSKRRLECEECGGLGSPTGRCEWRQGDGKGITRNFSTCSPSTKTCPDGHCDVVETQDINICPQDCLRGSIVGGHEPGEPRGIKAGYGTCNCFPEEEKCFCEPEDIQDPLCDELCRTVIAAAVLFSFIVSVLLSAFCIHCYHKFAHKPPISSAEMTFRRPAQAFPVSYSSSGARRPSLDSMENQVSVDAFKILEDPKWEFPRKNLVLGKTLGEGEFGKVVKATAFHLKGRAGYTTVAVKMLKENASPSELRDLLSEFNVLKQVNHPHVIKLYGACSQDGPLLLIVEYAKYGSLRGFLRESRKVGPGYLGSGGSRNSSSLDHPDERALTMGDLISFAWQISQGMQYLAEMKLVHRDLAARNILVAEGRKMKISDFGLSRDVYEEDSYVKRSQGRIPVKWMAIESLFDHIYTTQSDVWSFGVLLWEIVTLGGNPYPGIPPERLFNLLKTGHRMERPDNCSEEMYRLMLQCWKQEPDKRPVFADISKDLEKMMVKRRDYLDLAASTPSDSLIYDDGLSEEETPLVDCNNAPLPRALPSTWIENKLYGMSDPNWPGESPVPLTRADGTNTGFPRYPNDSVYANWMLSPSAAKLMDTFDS
# ASSAY_INFO: RET Kinase Activity Assay
# Assay type: biochemical
# MEASUREMENT_PARAMETERS: read-out: Ret, % INH, at 30 uM

The following compounds have reported results that may help.
### Prompt inhibition at 30 µM lookup needed for `Nc1nc(N2CCN(CCCc3cccc(Cl)c3)c3ccccc3C2)c2cn[nH]c2n1` , thanks.
### Response < 50%

### Prompt For the compound shown here, `CC(C)c1ccc(CN2CCN(c3nc(N)nc4[nH]ncc34)Cc3ccccc32)cc1` , give the reported inhibition at 30 µM.
### Response < 50%

### Prompt What inhibition at 30 µM value was documented for this compound, `Nc1nc(N2CCN(Cc3ccc(F)cc3)c3ccccc3C2)c2cn[nH]c2n1` ?
### Response < 50%

Fill in inhibition at 30 µM for each of the 5 compounds listed.
1. Nc1nc(N2CCN(CCCc3cccc(Cl)c3)c3ccccc3C2)c2nc[nH]c2n1
2. COc1cc2c(cc1OC)C(CCc1ccccc1)N(c1nc(N)nc3[nH]ncc13)CC2 (centres unmarked)
3. CC(C)(C)c1ccc(CN2CCN(c3nc(N)nc4[nH]cnc34)Cc3ccccc32)cc1
4. COc1cc2c(cc1OC)C(c1ccccc1Cl)N(c1nc(N)nc3[nH]cnc13)CC2 (centres unmarked)
5. Cc1ccccc1CN1CCN(c2nc(N)nc3[nH]cnc23)Cc2ccccc21

### Response
< 50%
50 to 79%
< 50%
< 50%
50 to 79%
